# credit: patent US6925388B1

- Tested on: non-infected PBMNC
- EXPERIMENT: Microculture Tetrazolium Assay (MTA) of cell viability
- Format: cell-based, human
- PROTOCOL_CONDITIONS: Table 4
PROPERTY: CC50 (µM)
The response must be a number in µM with no trailing unit.

Item: Cc1cn([C@H]2C[C@H](N=[N+]=[N-])[C@@H](CO)O2)c(=O)[nH]c1=O [AZT, reference compound] | CC50: 50

----------
- System: non-infected PBMNC
- EXPERIMENT: Microculture Tetrazolium Assay (MTA) of cell viability
- Assay type: cell-based, human
- PROTOCOL_CONDITIONS: Table 7; concentration decreasing cellular proliferation by 50%
Collected IC50 values appear next to each entry.

Known results for compounds:
- COMPOUND: "S=C(NCCN1CCOCC1)Nc1ccc(Br)cn1"
  IC50: "> 100 µM"
- COMPOUND: "S=C(NCCN1CCCCC1)Nc1ccc(Br)cn1"
  IC50: "> 100 µM"
- COMPOUND: "Cc1cn([C@H]2C[C@H](N=[N+]=[N-])[C@@H](CO)O2)c(=O)[nH]c1=O [AZT, reference compound]"
  IC50: "50 µM"

Switching to the query record.
The recorded IC50 for entry `S=C(NCCN1CCNCC1)Nc1ccc(Br)cn1` equals > 100 µM
